B1: CPEB3 Ribozyme (parent)
chain: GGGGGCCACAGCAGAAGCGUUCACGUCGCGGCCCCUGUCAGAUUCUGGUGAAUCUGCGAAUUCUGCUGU

# Variants of: B1
# Test Summary: self-cleavage, relative activity (ratio to wild type); higher = more cleavage; co-transcriptional
Record t whenever self-cleavage is at 0.3 or higher; record f when lower.

Input: Quick check, self-cleavage >= 0.3? CGGGGCCACAGCAGAAGCCUUCACGUCGCGGCCCCUGUCAGAUUCUGGUGAAUCUGCGAAUUCUGCUGU [G1C G19C]
Output: f

Input: Quick check, self-cleavage >= 0.3? GGGGGCCACAGCAGAAACGUUCACGUCGCGGCCCCUGUCAGAUUCUGGUGAAUCUGCGAAUUCUGCUGU [G17A]
Output: t

Input: Quick check, self-cleavage >= 0.3? GGGGGCCACAGCACAAGCGUUCACGUCGCGGCCCCUGUCAGAUUCUGGUGAAUCUGCGAUUUCUGCUGU [G14C A60U]
Output: f

Input: Quick check, self-cleavage >= 0.3? GGGGGCCACAGCAGAAGCCUUCACGUCGCGGCCCCUGUCAGAUUCUGGUGAAUCUGCGAAUUCUGCUGA [G19C U69A]
Output: f

Input: Quick check, self-cleavage >= 0.3? GGGGGCCACAGCCGAAGCGUUCACGUCGCGGCCCCUGUCAGAUUCUGAUGAAUCUGCGAAUUCUGCUGU [A13C G48A]
Output: t

---
Input: Quick check, self-cleavage >= 0.3? GCGGGCCACAGCAGAAGCGUUCACGUCGCGGCCCCAGUCAGAUUCUGGUGAAUCUGCGAAUUCUGCUGU [G2C U36A]
Output: f

Input: Quick check, self-cleavage >= 0.3? GGGGGCCACUGCAGAAGCGUUCACGUCGCGGCCCCUGUCAGAUUCAGGUGAAUCUGCGAAUUCUGCUGU [A10U U46A]
Output: t

Input: Quick check, self-cleavage >= 0.3? GGGGGCCACAGCAGAAGCGUUCACGUCGCGGCCCCUGUCAGAUUCCGGUUAAUCUGCGAAUUCUGCUGU [U46C G50U]
Output: t

Input: Quick check, self-cleavage >= 0.3? GGGGGCCACCGCAGAAGCGUUCACGUCGCGGCCCCUGUCAGAUUCUGGUGAAUCUGCGAAUUCUGCAGU [A10C U67A]
Output: t

Input: Quick check, self-cleavage >= 0.3? GGGGGCCACAGCAGAAGCGUUCACGUCGCGGCCCCUGUCAGAUUCUAGUGAAUCUCCGAAUUCUGCUGU [G47A G56C]
Output: t

Input: Quick check, self-cleavage >= 0.3? GGGGGCCACAGCAGAAGCGUUCACGUCGCGGCCCCUGUCAUAUUCUGGUGAAUCUGCGAAUUAUGCUGU [G41U C63A]
Output: t
